system: Nav1.5/β1 (Homo sapiens, UniProt Q14524)
Construct: Nav1.5 (UniProt: Q14524.1); expressed in transfected cells; host or cells: Xenopus laevis oocytes (cRNA injection, Nav1.5:β1 2:1 by weight)
Sequence (Q14524 whole entry): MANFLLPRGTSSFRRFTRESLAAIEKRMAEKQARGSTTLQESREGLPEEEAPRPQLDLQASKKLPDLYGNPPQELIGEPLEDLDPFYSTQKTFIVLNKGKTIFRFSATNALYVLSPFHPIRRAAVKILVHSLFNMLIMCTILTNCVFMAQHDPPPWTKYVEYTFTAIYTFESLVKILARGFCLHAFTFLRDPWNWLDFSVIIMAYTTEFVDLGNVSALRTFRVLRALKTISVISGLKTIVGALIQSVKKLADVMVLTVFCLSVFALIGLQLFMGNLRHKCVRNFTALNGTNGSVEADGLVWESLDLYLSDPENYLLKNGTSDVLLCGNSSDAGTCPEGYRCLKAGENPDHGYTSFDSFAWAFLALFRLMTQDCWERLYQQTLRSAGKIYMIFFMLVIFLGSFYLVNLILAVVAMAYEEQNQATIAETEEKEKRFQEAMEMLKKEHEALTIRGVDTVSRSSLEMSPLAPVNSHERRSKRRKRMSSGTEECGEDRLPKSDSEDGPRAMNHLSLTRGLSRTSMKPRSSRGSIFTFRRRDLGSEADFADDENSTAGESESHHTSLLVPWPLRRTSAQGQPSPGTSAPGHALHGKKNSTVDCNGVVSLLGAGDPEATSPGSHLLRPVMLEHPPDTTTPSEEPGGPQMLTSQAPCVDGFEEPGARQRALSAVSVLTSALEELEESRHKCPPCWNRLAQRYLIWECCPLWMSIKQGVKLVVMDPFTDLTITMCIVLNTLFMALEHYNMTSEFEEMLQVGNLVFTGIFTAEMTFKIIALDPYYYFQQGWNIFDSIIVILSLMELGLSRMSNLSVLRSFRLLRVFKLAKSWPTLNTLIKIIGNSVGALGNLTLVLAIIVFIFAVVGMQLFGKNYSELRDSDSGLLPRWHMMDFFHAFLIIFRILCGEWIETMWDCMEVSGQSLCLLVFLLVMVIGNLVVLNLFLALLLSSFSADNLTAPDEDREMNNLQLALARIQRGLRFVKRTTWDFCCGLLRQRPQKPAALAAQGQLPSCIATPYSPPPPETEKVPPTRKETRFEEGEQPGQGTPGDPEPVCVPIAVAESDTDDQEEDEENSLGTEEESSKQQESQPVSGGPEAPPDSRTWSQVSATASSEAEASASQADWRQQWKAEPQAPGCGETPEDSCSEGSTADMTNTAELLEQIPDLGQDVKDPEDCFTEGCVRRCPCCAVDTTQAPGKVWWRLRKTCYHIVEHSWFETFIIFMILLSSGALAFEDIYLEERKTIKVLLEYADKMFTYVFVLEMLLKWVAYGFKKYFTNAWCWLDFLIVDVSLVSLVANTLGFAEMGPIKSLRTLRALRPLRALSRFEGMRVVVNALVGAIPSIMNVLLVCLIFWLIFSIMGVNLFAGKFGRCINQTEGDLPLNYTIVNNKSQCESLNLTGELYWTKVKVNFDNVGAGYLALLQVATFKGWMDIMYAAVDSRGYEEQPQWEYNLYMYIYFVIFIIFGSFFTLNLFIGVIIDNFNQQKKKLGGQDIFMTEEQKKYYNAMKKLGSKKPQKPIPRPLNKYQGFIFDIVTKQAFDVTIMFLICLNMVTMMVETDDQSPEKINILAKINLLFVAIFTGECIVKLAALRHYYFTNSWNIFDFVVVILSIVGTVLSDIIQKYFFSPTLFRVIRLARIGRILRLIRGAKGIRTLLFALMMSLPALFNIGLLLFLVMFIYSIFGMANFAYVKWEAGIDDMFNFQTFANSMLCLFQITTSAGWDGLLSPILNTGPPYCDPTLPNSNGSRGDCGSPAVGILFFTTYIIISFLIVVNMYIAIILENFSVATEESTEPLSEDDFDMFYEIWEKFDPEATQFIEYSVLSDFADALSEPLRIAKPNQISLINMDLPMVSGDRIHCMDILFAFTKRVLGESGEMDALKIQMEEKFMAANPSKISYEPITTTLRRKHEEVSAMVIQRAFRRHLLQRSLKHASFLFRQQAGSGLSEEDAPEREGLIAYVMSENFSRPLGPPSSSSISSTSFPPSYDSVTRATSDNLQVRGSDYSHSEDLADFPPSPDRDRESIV
Sequence (Q07699 19-218 partner): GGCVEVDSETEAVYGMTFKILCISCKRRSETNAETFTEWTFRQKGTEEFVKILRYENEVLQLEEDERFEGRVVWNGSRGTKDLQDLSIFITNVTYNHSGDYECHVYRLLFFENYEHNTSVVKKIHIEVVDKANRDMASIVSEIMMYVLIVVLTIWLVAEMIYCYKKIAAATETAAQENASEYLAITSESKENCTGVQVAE
experiment description: Two-electrode voltage clamp of Nav1.5/β1 expressed in Xenopus oocytes
Type: cell-based
condition notes: 0.7 μM
ΔV0.5 (voltage dependence of inactivation) of -1 mV or higher: yes. Under -1 mV: no.

>>> print(df.to_string())
                                 smiles_str  assigned_class
0  CCCCC/C=C\C/C=C\C/C=C\C/C=C\CCCC(=O)NCCS(=O)(=O)O             yes
1      CCCCC/C=C\C/C=C\CCCCCCCC(=O)NCC(=O)O              no
2  CC/C=C\C/C=C\C/C=C\C/C=C\C/C=C\C/C=C\CCC(=O)NCCS(=O)(=O)O              no
3  CC/C=C\C/C=C\C/C=C\C/C=C\C/C=C\C/C=C\CCC(=O)NCC(=O)O             yes
4  CCCCC/C=C\C/C=C\CCCCCCCC(=O)NCCS(=O)(=O)O              no
5  CCCCC/C=C\C/C=C\CC/C=C\CCCC(=O)NCCS(=O)(=O)O             yes
6   CCCCC/C=C\C/C=C\CC/C=C\CCCC(=O)NCC(=O)O             yes
